B1: Azoarcus group I ribozyme (parent)
chain: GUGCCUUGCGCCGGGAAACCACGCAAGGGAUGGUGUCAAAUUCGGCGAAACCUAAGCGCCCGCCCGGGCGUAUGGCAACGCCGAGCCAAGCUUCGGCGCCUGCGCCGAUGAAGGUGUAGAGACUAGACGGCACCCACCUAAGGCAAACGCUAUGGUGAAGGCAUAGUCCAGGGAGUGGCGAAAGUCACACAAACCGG

- Variants of: B1
- procedureSummary: reverse-splicing fitness (ratio to wild type); higher = more active; in vitro selection; Mg2+ level not given
Entry flag: true if reverse-splicing fitness reaches 0.02; false if it does not.

Known results for variants:
INSERT INTO results (mutations, classification) VALUES
  ('C82G A145C C150A C169A', 'false'),
  ('C82U A111G A120U A145U C150A', 'false'),
  ('A111C A120G C150G C169G', 'false'),
  ('C82U A111G A120C A145C C169G', 'false'),
  ('C82U A111U A120C A145C C169G U176C', 'false');

In: Quick check: does C82G A111C A120C C150G have reverse-splicing fitness greater than or equal to 0.02?
Out: false

In: Quick check: does A111U A120U A145G C150A C169U have reverse-splicing fitness greater than or equal to 0.02?
Out: false

In: Quick check: does A111U A120C C150G C169A U176G have reverse-splicing fitness greater than or equal to 0.02?
Out: false

In: Quick check: does C82U C150A U176C have reverse-splicing fitness greater than or equal to 0.02?
Out: true

In: Quick check: does C82A A111U A120U A145G C150A C169G U176G have reverse-splicing fitness greater than or equal to 0.02?
Out: false

Numbers sourced from the RNAGym collection of RNA variant scans (doi:10.1093/molbev/msab373).
